Source listed as patent US20050249750A1.

# subject.of.test: T1, soluble DR 8 (DRB1*0801) class II molecules purified from BM9 EBV-B cells (human), P01903
# T1 chain 1: not shown
# T1 chain 2: not shown
# test.description: peptide competition ELISA, soluble DR 8, biotinylated indicator GYR(A)6L
readout.name: IC50

The binder listed as DPNANPNVDPNANPNV (modifications not checked) shows IC50 equal to > 100 µM
